System: rodent lifetime carcinogenesis bioassay, tumor incidence TD50
TEST_PROTOCOL: carcinogenic potency in animals, long-term in vivo studies, CPDB compilation (AID 1745844)
ASSAY_CONTEXT: mouse; strain B6C3F1; males; in feed; site: gastric mucosa; lesion: carcinoid tumor, malignant; dosed 91 weeks; study length 91 weeks

MOL_SMILES: NC(=O)CCCCn1ccc(NC(N)=NCC(F)(F)F)n1
TD50: 401 mg/kg/day

###

System: rodent lifetime carcinogenesis bioassay, tumor incidence TD50
TEST_PROTOCOL: carcinogenic potency in animals, long-term in vivo studies, CPDB compilation (AID 1745844)
ASSAY_CONTEXT: mouse; strain B6C3F1; males; by gavage; site: lung; lesion: alveolar/bronchiolar adenoma + alveolar/bronchiolar carcinoma; dosed 91 weeks; study length 104 weeks

MOL_SMILES: ClCc1cccnc1
UNIT_TAG: mg/kg/day
TD50: 624
